Target: Growth factor receptor-bound protein 2 (Homo sapiens)
Assay: Inhibition of Grb2 SH2 domain binding by surface plasmon resonance

[
  {
    "Compound String": "CC(=O)N[C@@H](Cc1ccc(OP(=O)(O)O)cc1)C(=O)NC1(C(=O)N[C@@H](CC(N)=O)C(=O)NCCCc2cccc3ccccc23)CCCCC1",
    "IC50 / nM": 70
  }
]

###

Target: Growth factor receptor-bound protein 2 (Homo sapiens, UniProt P62993)
Sequence (P62993 whole entry, the tested form may be a part): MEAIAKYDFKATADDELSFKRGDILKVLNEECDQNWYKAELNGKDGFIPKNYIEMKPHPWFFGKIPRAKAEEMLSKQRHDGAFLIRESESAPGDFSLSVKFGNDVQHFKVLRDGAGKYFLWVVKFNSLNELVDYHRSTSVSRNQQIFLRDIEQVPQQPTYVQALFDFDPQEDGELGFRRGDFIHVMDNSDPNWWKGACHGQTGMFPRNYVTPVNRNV
Assay: Inhibition of Growth factor receptor bound protein 2 SH2 domain binding in plasmon resonance binding assay
pIC50: −log10 of the molar value.
Measured Property: pIC50

[
  {
    "Compound String": "CC(=O)N[C@@H](Cc1ccc(OCC(=O)O)c(C(=O)O)c1)C(=O)NC1(C(=O)N[C@@H](CC(N)=O)C(=O)NCCCc2cccc3ccccc23)CCCCC1",
    "Target Entity": "Growth factor receptor-bound protein 2 (Homo sapiens, UniProt P62993)",
    "Measured Property": "pIC50",
    "Bound Type": "=",
    "Result Number": 5.17
  },
  {
    "Compound String": "NC(=O)C[C@H](NC(=O)C1(NC(=O)[C@H](Cc2ccc(OCC(=O)O)c(C(=O)O)c2)NC(=O)C(=O)O)CCCCC1)C(=O)NCCCc1cccc2ccccc12",
    "Target Entity": "Growth factor receptor-bound protein 2 (Homo sapiens, UniProt P62993)",
    "Measured Property": "pIC50",
    "Bound Type": "=",
    "Result Number": 5.89
  },
  {
    "Compound String": "CC(=O)N[C@@H](Cc1ccc(OCC(=O)O)c(OCC(=O)O)c1)C(=O)NC1(C(=O)N[C@@H](CC(N)=O)C(=O)NCCCc2cccc3ccccc23)CCCCC1",
    "Target Entity": "Growth factor receptor-bound protein 2 (Homo sapiens, UniProt P62993)",
    "Measured Property": "pIC50",
    "Bound Type": "<",
    "Result Number": 4.00
  },
  {
    "Compound String": "CC(=O)N[C@@H](Cc1ccc(C(F)(F)P(=O)(O)O)cc1)C(=O)NC1(C(=O)N[C@@H](CC(N)=O)C(=O)NCCCc2cccc3ccccc23)CCCCC1",
    "Target Entity": "Growth factor receptor-bound protein 2 (Homo sapiens, UniProt P62993)",
    "Measured Property": "pIC50",
    "Bound Type": "=",
    "Result Number": 7.10
  },
  {
    "Compound String": "CC(=O)N[C@@H](Cc1ccc(CP(=O)(O)O)cc1)C(=O)NC1(C(=O)N[C@@H](CC(N)=O)C(=O)NCCCc2cccc3ccccc23)CCCCC1",
    "Target Entity": "Growth factor receptor-bound protein 2 (Homo sapiens, UniProt P62993)",
    "Measured Property": "pIC50",
    "Bound Type": "=",
    "Result Number": 7.10
  }
]

###

Biological target: Growth factor receptor-bound protein 2 (Homo sapiens, UniProt P62993)
Assay: Inhibition of Grb2 SH2 domain binding in MDA-MB-453 human breast carcinoma cell lysates
Details: in the assay text read “cells” for “cell lysates”
pIC50: −log10 of the molar value.

[
  {
    "Compound String": "CC(=O)N[C@@H](Cc1ccc(O)cc1)C(=O)NC1(C(=O)N[C@@H](CC(N)=O)C(=O)NCCCc2cccc3ccccc23)CCCCC1",
    "pIC50": "< 4.30"
  }
]
